Source: the supplement of paper PMC10065799

target: FGFR3 (UniProt P22607); assay: phosphorylation enrichment, bacterial display (enrichment ratio); higher = better substrate or ligand; peptides without Tyr show the background;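 also: 11-residue human phosphosite peptides and single-mutation variants displayed on the E. coli surface, counted by deep sequencing, each peptide's frequency after selection divided by its frequency in the unselected input library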;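 also: frequency after pTyr selection over input frequency; kinase dosed for 20-30% of maximal phosphorylation in three min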
Sequence (P22607 whole entry, looked up): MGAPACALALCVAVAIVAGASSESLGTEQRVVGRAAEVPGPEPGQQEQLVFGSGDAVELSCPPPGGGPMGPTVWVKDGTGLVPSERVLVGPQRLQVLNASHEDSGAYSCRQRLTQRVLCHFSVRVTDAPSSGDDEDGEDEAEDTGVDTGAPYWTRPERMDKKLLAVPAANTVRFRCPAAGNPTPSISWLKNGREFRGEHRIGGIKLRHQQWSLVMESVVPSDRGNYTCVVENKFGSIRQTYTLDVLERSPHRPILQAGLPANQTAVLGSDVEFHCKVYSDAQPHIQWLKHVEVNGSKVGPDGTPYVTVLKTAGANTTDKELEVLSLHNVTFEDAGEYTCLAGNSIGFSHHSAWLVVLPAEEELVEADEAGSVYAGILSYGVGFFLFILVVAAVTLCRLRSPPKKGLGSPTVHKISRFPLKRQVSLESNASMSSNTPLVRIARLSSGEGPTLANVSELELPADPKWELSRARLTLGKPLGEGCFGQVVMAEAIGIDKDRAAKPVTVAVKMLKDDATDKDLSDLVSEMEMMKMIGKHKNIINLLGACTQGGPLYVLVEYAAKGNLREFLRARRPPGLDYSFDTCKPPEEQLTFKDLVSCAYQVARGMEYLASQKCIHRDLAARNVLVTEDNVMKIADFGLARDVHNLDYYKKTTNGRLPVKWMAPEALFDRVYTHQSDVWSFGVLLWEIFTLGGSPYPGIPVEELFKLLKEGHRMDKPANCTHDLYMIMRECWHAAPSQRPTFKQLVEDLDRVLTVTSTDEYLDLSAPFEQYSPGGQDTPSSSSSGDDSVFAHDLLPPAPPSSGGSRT
The sequences listed here are annotated with their phosphorylation enrichment.

[
  {
    "primary-sequence": "FESPRYLQVHI [FANCA_Y488]",
    "value": 0.61
  }
]

Please provide the recorded phosphorylation enrichment for KIVATYRLCSE [DNAH3_Y1586] , tested on FGFR3 (UniProt P22607).
0.664

Item: QSHKVYFQHLL [POR_Y604_V605F]
0.915

---

biological target: EPHB2 (UniProt P29323); assay: phosphorylation enrichment, bacterial display (enrichment ratio); higher = better substrate or ligand; peptides without Tyr show the background
Sequence (P29323 whole entry, looked up): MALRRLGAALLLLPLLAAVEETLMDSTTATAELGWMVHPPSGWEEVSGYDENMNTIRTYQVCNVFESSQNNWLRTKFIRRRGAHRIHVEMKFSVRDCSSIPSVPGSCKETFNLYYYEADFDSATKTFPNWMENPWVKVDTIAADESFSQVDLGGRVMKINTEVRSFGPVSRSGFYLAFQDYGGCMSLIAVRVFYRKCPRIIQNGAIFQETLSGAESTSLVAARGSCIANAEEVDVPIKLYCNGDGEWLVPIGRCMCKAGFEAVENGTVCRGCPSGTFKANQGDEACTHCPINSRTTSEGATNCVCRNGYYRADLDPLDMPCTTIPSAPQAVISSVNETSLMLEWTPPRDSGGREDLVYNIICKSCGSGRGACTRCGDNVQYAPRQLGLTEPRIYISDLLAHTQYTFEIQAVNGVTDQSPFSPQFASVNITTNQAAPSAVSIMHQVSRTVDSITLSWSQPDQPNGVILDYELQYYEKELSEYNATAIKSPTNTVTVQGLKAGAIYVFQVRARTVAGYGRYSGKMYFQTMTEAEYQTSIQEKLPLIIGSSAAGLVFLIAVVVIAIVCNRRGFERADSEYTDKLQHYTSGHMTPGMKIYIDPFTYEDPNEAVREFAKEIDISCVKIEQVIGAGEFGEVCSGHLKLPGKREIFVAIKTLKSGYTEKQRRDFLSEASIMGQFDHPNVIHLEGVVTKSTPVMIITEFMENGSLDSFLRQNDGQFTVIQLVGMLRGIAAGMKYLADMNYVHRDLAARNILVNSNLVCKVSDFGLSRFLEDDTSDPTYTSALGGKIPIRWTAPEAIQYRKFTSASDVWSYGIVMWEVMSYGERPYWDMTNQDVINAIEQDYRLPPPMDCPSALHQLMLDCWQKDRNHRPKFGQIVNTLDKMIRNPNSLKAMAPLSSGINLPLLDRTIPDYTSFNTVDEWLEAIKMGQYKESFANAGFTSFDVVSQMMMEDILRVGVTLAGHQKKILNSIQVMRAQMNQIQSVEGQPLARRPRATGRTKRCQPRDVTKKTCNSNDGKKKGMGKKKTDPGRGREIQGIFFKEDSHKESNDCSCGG
Kindly return T if reported phosphorylation enrichment is no lower than 0.5; return F if it is lower.

[
  {
    "primary-sequence": "QRKPSYNQLPS [BRCA2_Y71_A75P]",
    "class-name": "T"
  }
]

Does phosphorylation enrichment meet or surpass 0.5 for KPPFSYNALIR [FOXG1_Y186_M191R] ?
T

Same question for EKLQKYFRQNP [EHHADH_Y682_YF] please.
F

Also need AVNNFYAAKKT [CCDC178_Y422_D420N] , thanks.
F

Please answer likewise for LRIAVYHEILI [CREBBP_Y1450_T1447I]
T

One more sequence: RLDRSYSYSYS [PEAR1_Y890]
F

And for ALKWGYTVKGI [OAT_Y158_R154L] ?
T

Can you check LYSINYLHFGD [KDM4C_Y201_E206D] next?
T

---

Entries and their measured phosphorylation enrichment follow.
target: Jak2 (UniProt O60674); assay: phosphorylation enrichment, bacterial display (enrichment ratio); higher = better substrate or ligand; peptides without Tyr show the background
Sequence (O60674 whole entry, looked up): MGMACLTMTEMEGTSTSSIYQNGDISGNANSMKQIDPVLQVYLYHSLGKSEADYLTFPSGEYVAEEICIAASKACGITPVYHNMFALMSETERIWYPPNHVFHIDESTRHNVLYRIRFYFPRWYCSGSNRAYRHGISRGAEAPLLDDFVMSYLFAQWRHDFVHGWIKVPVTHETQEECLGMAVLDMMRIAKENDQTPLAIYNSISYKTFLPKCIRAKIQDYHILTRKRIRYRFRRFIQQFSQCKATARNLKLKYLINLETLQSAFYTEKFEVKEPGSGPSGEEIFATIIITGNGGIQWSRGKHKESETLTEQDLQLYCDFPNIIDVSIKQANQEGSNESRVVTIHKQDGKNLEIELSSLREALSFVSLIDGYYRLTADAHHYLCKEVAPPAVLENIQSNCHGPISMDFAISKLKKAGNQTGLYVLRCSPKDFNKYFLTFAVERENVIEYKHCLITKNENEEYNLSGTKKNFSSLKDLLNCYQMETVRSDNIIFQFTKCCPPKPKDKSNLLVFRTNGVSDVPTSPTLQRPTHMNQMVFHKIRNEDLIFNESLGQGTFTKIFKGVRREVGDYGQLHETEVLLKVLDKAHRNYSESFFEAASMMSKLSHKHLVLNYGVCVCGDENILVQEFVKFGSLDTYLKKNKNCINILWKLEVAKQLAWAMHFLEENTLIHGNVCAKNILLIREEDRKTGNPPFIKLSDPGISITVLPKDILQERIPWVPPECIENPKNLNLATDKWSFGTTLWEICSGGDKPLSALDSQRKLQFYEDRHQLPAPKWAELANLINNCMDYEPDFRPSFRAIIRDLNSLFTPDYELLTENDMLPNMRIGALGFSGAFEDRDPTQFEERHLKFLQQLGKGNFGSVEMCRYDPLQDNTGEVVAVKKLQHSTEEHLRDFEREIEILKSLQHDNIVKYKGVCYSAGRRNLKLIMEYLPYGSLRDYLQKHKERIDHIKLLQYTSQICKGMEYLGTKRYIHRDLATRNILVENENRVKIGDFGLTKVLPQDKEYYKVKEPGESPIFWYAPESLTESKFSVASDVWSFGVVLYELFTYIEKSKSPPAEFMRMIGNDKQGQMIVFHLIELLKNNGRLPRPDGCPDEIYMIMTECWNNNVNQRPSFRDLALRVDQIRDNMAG
# print the numeric value only

Known phosphorylation enrichment results, listed for orientation:
[
  {
    "primary-sequence": "CLLHCYFSQIR [MCM3AP_Y873]",
    "value": 1.21
  },
  {
    "primary-sequence": "QSHKVYFQHLL [POR_Y604_V605F]",
    "value": 1.22
  },
  {
    "primary-sequence": "DGLALYTGSAL [COL6A3_Y524_S521L]",
    "value": 0.901
  },
  {
    "primary-sequence": "ENFDDYMKDVG [FABP4_Y20_E23D]",
    "value": 1.24
  },
  {
    "primary-sequence": "NSNSDYVDILP [SH2D1B_Y127_V130I]",
    "value": 1.09
  }
]

So what does the record say about phosphorylation enrichment for EFISENCGEII [EZH2_Y641_Y641N] ?
1.13

Same thing, different sequence: PDNEPYIFKVF [PIK3AP1_Y553]
2.79

What do you get for VLTSKYCGGGG [HBA1_Y141_R142C] ?
0.634

Repeat for the following sequence: REESTYLPLTS [ICAM3_Y527]
1.41

Also need GPSTPYTKSKR [SMARCC2_Y324] , thanks.
0.497

Would you mind doing DERQPYVHMNG [IGF1R_Y1346_A1347V] as well?
0.786

// query: LHSDHYSPSGR [TMPRSS12_Y23_Y19H]
0.414

Can you handle MSRFIYSTDFF [NTRK1_Y676_D674Y_YF] next?
1.04

Try KDKLPYPFDDP [GPX2_Y125_YF] next.
0.821

Another: LNERHYGGLTD [PGAM2_Y92_G97D]
0.457

Thanks! And KICDWYQRQRP [KRT14_Y151_R148C] ?
0.651

Consider next the sequence HLTLVYGGIFL [FBP1_Y259_R255L] in the same way.
1.96

Now consider VRQQDYKKVEE [HADHA_Y283_V282D] .
0.564

# iterate: KKLAEYGPQGR [CLCA1_Y147]
0.441

Please give the result for LMQAEYWHDPI [PPT1_Y185_V181M] too.
1.16
